B1: TPR t1 (parent)
chain: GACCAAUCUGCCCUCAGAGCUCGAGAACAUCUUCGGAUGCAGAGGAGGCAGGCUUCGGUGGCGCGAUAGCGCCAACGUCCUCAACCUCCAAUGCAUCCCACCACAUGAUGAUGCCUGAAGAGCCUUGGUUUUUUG

# Variants of: B1
# assay_info: polymerase ribozyme fitness, log enrichment relative to wild type (log ratio); higher = more active; in vitro selection for triplet polymerase activity
Returns satisfied if the recorded polymerase ribozyme fitness (log ratio) is greater than or equal to -2, and not satisfied otherwise.

Before answering, review these 5 worked examples.
mutant_code	cat
A5U C31U U112A	not satisfied
C13U C88U	satisfied
C70U G77U U78C A95U C123G	satisfied
U55C U96A U106A	satisfied
U59G C88G	not satisfied

input: Does the reported polymerase ribozyme fitness (log ratio) for C20A C79A fall at or above the -2 mark?
output: not satisfied

input: Does the reported polymerase ribozyme fitness (log ratio) for G44C A83U fall at or above the -2 mark?
output: satisfied

input: Does the reported polymerase ribozyme fitness (log ratio) for C40G C94A G110C C114U A118G fall at or above the -2 mark?
output: not satisfied
